Tested on: Staphylococcus aureus ATCC 25923
Format: cell-based
assay_setup: ATCC 25923, 2 h
Ends that are not written are not given here.
Param threshold (200 µg/mL) applies to minimum inhibition concentration; output satisfied when value >= threshold, not satisfied when value < threshold.

Illustrative cases are given below, each with its answer.
{"columns": ["substance", "category_label"],
 "data": [
  ["YIVYKIRSAKKRWKALK-OH [BOL-57, YIVYKIRSAKKRWKALK]", "satisfied"],
  ["YIVRKIRSARKRRKALK-OH [BOL-83, YIVRKIRSARKRRKALK]", "satisfied"],
  ["YIVYKIRWARKRRKALK-OH [BOL-50, YIVYKIRWARKRRKALK]", "not satisfied"],
  ["YIVYKIRSAWKRRKALK-OH [BOL-44, YIVYKIRSAWKRRKALK]", "not satisfied"],
  ["YIRYKIRSARKRRKALK-OH [BOL-17, YIRYKIRSARKRRKALK]", "not satisfied"]
]}

Would you kindly look at the next entry?
Reported minimum inhibition concentration reaches at least 200 µg/mL for YIVWKIRSAWKRSKALK-OH [BOL-75, YIVWKIRSAWKRSKALK] ?
not satisfied

###

System: Staphylococcus aureus ATCC 25923
Format: cell-based
assay_setup: ATCC 25923, 2 h
Ends that are not written are not given here.
measured_parameter: minimum inhibition concentration
Note to self: number, then unit, no commentary.

{"columns": ["substance", "minimum inhibition concentration"],
 "data": [
  ["YIVYKIRSAWKRRK-OH [BOL-69, YIVYKIRSAWKRRK]", "300 µg/mL"],
  ["YIVWKIRSAWKRWKALK-OH [BOL-82, YIVWKIRSAWKRWKALK]", "18.75 µg/mL"],
  ["YIRYKIRSARKRRKALK-OH [BOL-14, YIRYKIRSARKRRKALK]", "50 µg/mL"]
]}

Given the entry YIVYKIRSARKRSKALK-OH [BOL-6, YIVYKIRSARKRSKALK] , report its measured minimum inhibition concentration.
37.5 µg/mL
